# Assay notes: Selectivity index, ratio of IC50 for African green monkey Vero cells to IC50 for Trypanosoma cruzi TINF/CH/1956/Tulahuen DTU 6 trypamastigotes derived from infected Balb/c albino mouse
# Assay type: toxicity
# Condition summary: read-out: Ratio IC50
Endpoint name: selectivity ratio
Would you mind answering with just the numeric figure?

{"Compound structure string": "O=C(CCN1CCN(c2ccc([N+](=O)[O-])cc2)CC1)c1ccc(F)c(Br)c1", "selectivity ratio": 8}
{"Compound structure string": "COc1ccc(C(=O)CCN2CCN(c3ccc(F)cc3)CC2)cc1", "selectivity ratio": 47.4}
{"Compound structure string": "COc1ccc(C(=O)CCN2CCN(c3ccc(Cl)cc3)CC2)cc1", "selectivity ratio": 103}

Proceeding to the next compound to report its selectivity ratio.
Query: Fill in selectivity ratio for record "COc1ccc(C(=O)CCN2CCN(c3ccc([N+](=O)[O-])cc3)CC2)cc1"
Result: 40.6

---

# Assay notes: Selectivity index, ratio of IC50 for African green monkey Vero cells to IC50 for Trypanosoma cruzi IRHOD/CO/2008/SN3 DTU 1 epimastigotes
# Format: toxicity
# Condition summary: read-out: Ratio IC50
Please use the following selectivity ratio ranges when assigning a class: low: < 2; middle: ≥ 2 and < 6; high: ≥ 6

Here's what some known entries look like.
{"Compound structure string": "O=C(CCN1CCN(c2ccc(F)cc2)CC1)c1ccc(OC(F)(F)F)cc1", "Group label": "middle"}
{"Compound structure string": "O=C(CCN1CCN(c2ccc([N+](=O)[O-])cc2)CC1)c1ccc(Cl)c(F)c1", "Group label": "middle"}
{"Compound structure string": "COc1ccc(C(=O)CCN2CCN(c3ccc([N+](=O)[O-])cc3)CC2)cc1", "Group label": "high"}
{"Compound structure string": "COc1ccc(C(=O)CCN2CCN(Cc3ccccc3)CC2)cc1OC", "Group label": "low"}

Query: Could you place "COc1ccc(C(=O)CCN2CCN(c3ccc(F)cc3)CC2)cc1" in its proper category? Many thanks.
Result: high

Query: Just checking, what class would you give "O=C(CCN1CCN(c2ccc(Cl)cc2)CC1)c1ccc(F)c(Cl)c1" here?
Result: middle

Query: The entry to classify is "Cc1ccc(C(=O)CCN2CCN(c3ccc(C(F)(F)F)cc3)CC2)cc1" ; which class holds it?
Result: high

Query: Which category does the recorded selectivity ratio put "O=C(CCN1CCN(c2ccc(F)cc2)CC1)c1ccc(Cl)c(F)c1" in?
Result: low

---

# Tested on: Trypanosoma cruzi
# Assay notes: Trypanocidal activity against Trypanosoma cruzi TINF/CH/1956/Tulahuen DTU 6 amastigotes infected in African green monkey Vero cells after 72 hrs by Giemsa-staining based microscopic assay
# Type: functional, organism-based
# Condition summary: TINF/CH/1956/Tulahuen DTU 6, Vero
Endpoint name: pIC50
Remember the convention: pIC50 equals -log10 of concentration in molar.

Use these answered entries as a reference point.
{"Compound structure string": "COc1ccc(C(=O)CCN2CCN(c3ccc(Cl)cc3)CC2)cc1", "pIC50": 5.42}
{"Compound structure string": "O=C(Cn1ccnc1[N+](=O)[O-])NCc1ccccc1", "pIC50": 5.00}
{"Compound structure string": "COc1ccc(C(=O)CCN2CCN(c3ccc(F)cc3)CC2)cc1", "pIC50": 5.80}

Query: Recall the reported pIC50 of "COc1ccc(C(=O)CCN2CCN(c3ccc([N+](=O)[O-])cc3)CC2)cc1" when tested on Trypanosoma cruzi.
Result: 4.47

Query: // fetch pIC50 for "O=C(CCN1CCN(c2ccc([N+](=O)[O-])cc2)CC1)c1ccc(F)c(Br)c1" ; system: Trypanosoma cruzi
Result: 4.41
